# study-system: human IGF-1R (Homo sapiens, UniProt P08069)
# Construct: IGFRK and IRK enzyme used for the assay was intracellular kinase domain of human IGF-1R and human IR
# Sequence (P08069 999-1274 limits assumed): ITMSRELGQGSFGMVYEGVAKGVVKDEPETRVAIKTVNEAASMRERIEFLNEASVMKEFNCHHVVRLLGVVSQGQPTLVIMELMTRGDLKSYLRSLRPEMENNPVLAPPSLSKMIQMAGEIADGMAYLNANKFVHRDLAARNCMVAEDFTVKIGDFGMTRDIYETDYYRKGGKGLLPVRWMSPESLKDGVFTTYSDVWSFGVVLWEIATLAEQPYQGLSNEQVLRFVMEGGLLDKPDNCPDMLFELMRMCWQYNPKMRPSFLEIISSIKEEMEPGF
# experiment-summary: In vitro IGF-1R kinase assay (HTRF)
# experimental-parameters: intracellular kinase domain GST fusion, ATP 20 μM, 1 hour at 23° C., read-out: IGFIR-Activity
reported-metric: IC50 (nM)

CC(C)(C)NC(=O)N1CCC(Nc2cc(Cl)cc3c(S(=O)(=O)N4CCO[C@H](COc5ccccc5)C4)c(C(N)=O)[nH]c23)CC1 :: 9.8
NC(=O)c1[nH]c2c(NC(=O)CCCC(=O)N3CCOCC3)cc(Cl)cc2c1S(=O)(=O)N1CCO[C@H](COc2ccccc2)C1 :: 7.6

* * *

# study-system: human IGF-1R (Homo sapiens)
# Construct: IGFRK and IRK enzyme used for the assay was intracellular kinase domain of human IGF-1R and human IR
# experiment-summary: In vitro IGF-1R kinase assay (HTRF)
# experimental-parameters: intracellular kinase domain GST fusion, ATP 20 μM, 1 hour at 23° C., read-out: IGFIR-Activity
reported-metric: IC50 (nM)

NC(=O)c1[nH]c2c(NC(=O)CCC(=O)O)cc(Cl)cc2c1S(=O)(=O)N1CCO[C@H](COc2ccccc2)C1 :: 6.6

P = NC(=O)c1[nH]c2c(NCCC(=O)O)cc(Cl)cc2c1S(=O)(=O)N1CCO[C@H](COc2ccccc2)C1
Q = NC(=O)CCNc1cc(Cl)cc2c(S(=O)(=O)N3CCO[C@H](COc4ccccc4)C3)c(C(N)=O)[nH]c12
Problem: Given the entries P and Q , determine which has the lower reported IC50. Response format: the label of the selected entry. P
(P: 2.6 nM, Q: 11.5 nM)

* * *

# study-system: human IGF-1R (Homo sapiens)
# Construct: IGFRK and IRK enzyme used for the assay was intracellular kinase domain of human IGF-1R and human IR; made in house
# experiment-summary: In vitro IGF-1R kinase assay (HTRF)
# Assay type: biochemical
# experimental-parameters: intracellular kinase domain GST fusion, ATP 20 μM, 1 hour at 23° C., read-out: IGFIR-Activity
pIC50: −log10 of the molar value.
reported-metric: pIC50

NC(=O)c1[nH]c2c(NC3CCNCC3)cc(Cl)cc2c1S(=O)(=O)N1CCO[C@H](COc2ccccc2)C1 :: 7.66

I = NC(=O)c1[nH]c2c(NC3CCN(C(=O)NCC4CCCCC4)CC3)cc(Cl)cc2c1S(=O)(=O)N1CCO[C@H](COc2ccccc2)C1
II = N#CCCNc1cc(Cl)cc2c(S(=O)(=O)N3CCO[C@H](COc4ccccc4)C3)c(C(N)=O)[nH]c12
Kindly compare I with II and tell me which has the lower pIC50 figure. Return value: the label identifying the chosen record. I
(I: 7.48, II: 7.80)

* * *

# study-system: CYP3A4 (Homo sapiens)
# Construct: purchased Invitrogen (Vivid screening kits)
# Sequence (P08684 whole entry): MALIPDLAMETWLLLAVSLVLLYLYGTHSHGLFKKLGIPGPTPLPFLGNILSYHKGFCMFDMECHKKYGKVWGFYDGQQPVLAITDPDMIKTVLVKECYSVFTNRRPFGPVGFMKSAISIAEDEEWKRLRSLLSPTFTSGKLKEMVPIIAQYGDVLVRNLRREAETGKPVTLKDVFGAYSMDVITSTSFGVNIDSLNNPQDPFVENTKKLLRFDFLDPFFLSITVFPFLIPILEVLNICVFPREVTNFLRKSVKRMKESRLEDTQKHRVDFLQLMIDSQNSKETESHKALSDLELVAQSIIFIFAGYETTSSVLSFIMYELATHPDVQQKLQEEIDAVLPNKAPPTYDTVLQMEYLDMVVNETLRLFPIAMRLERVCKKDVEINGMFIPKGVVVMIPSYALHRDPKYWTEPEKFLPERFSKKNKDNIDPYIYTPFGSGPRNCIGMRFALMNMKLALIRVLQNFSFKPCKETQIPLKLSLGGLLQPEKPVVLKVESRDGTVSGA
# experiment-summary: CYP inhibition fluorescence assay (rhCYP450, Vivid Invitrogen kit)
# Format: in vitro ADME
# experimental-parameters: recombinant human CYP3A4, 10 μM compound, read-out: % inhibition of CYP 3A4 at 10 μM
reported-metric: inhibition at 10 µM (%)

I = NC(=O)c1[nH]c2c(NC(=O)CCCC(=O)O)cc(Cl)cc2c1S(=O)(=O)N1CCO[C@H](COc2ccccc2)C1
II = NC(=O)c1[nH]c2c(NC(=O)CCCC(=O)N3CCOCC3)cc(Cl)cc2c1S(=O)(=O)N1CCO[C@H](COc2ccccc2)C1
III = NC(=O)c1[nH]c2c(NC(=O)CCC(=O)O)cc(Cl)cc2c1S(=O)(=O)N1CCO[C@H](COc2ccccc2)C1
Which order do the items above take when sorted by inhibition at 10 µM from high to low? Give me the labels in the order the question wants. II, I, III
(II: 46%, I: 15%, III: 0%)

Data provenance is patent US20140045832A1.
